# TARGET UNDER TEST: recombinant human ABCB1 membranes (Homo sapiens, UniProt P08183)
# Sequence (P08183 whole entry): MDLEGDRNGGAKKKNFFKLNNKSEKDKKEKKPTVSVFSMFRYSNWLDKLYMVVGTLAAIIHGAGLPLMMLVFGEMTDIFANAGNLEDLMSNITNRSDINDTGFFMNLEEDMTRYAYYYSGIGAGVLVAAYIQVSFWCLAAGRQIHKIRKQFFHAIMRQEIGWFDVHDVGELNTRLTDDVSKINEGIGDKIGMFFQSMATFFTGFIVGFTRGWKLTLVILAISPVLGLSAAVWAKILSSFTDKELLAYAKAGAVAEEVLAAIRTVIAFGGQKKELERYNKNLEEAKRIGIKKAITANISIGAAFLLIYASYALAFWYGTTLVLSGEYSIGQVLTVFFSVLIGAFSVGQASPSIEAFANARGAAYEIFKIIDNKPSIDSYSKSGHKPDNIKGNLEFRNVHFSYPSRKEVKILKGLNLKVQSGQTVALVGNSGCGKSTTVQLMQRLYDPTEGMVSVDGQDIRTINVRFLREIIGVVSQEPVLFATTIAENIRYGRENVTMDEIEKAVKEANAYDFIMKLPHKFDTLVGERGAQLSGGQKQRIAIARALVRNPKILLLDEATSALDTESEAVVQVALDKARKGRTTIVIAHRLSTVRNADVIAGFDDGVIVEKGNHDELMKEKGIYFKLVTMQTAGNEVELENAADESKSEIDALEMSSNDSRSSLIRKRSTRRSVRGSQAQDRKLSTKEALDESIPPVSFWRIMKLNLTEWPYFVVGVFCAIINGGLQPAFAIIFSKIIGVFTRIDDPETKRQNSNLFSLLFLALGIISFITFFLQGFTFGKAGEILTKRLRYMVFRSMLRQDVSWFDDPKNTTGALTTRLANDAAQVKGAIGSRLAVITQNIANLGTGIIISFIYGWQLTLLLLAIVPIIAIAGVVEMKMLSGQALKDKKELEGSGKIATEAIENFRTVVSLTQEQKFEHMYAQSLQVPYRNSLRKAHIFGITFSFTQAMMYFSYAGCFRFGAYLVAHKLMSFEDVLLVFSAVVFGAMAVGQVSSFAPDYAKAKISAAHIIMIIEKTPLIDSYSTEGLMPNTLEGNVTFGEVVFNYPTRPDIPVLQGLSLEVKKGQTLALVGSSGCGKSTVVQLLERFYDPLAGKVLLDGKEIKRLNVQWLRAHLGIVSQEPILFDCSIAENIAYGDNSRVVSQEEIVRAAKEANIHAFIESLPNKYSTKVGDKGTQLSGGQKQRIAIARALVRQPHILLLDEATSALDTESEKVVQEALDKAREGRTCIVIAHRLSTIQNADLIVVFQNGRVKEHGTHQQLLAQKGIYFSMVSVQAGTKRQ
# TEST PROTOCOL: ABCB1 ATPase activity assay (Pgp-Glo)
# COND: 200 μM verapamil; read-out: IC50 for inhibiting verapamil-stimulated P-gp ATPase activity
# Protocol: Sodium orthovanadate (Na3VO4) was used as an ABCB1 ATPase inhibitor. […] Luminescence was initiated by ATP detection buffer. The plate (white opaque 96-well, corning, USA) was further incubated at room temperature for […] to develop luminescent signal, and was read with luminometer (infinite M200 PRO,TECAN, Switzerland).
ATTRIBUTE MEASURED: IC50 (µM)

INSERT INTO assay_data (chemical_smiles, reported) VALUES
  ('COc1ccc(-c2cc(=O)c3c(OC)c(OC)c(OC)c(OC)c3o2)cc1', 7.87);

----------
# TEST PROTOCOL: in vitro
# COND: human, A2780/T cells
pIC50: −log10 of the molar value.
ATTRIBUTE MEASURED: pIC50

INSERT INTO assay_data (compound, reported) VALUES
  ('COc1ccc(-c2cc(=O)c3c(OC)c(OC)c(OC)c(OC)c3o2)cc1 [Tangeretin, 5,6,7,8,4′-pentamethoxyflavone]', 4.44);

----------
# Test system: A2780/T cells
# TEST PROTOCOL: SRB cell cytotoxicity assay in A2780/T
# COND: read-out: IC50 ± SD; A2780/T, +0.83 μM TG
pIC50: −log10 of the molar value.
ATTRIBUTE MEASURED: pIC50

INSERT INTO measurements (chemical_smiles, attribute_measured, reported) VALUES
  ('O=c1[nH]cc(F)c(=O)[nH]1', 'pIC50', 3.82);

----------
# System: A2780/T cells
# TEST PROTOCOL: SRB cell cytotoxicity assay in A2780/T
# COND: A2780/T, +7.53 μM TG
In this section, each of the molecules is paired with its reported fold reversal.
ATTRIBUTE MEASURED: fold reversal

INSERT INTO results (molecule, attribute_measured, reported) VALUES
  ('CC(=O)O[C@H]1C(=O)[C@@]2(C)[C@H]([C@H](OC(=O)c3ccccc3)[C@]3(O)C[C@H](OC(=O)[C@H](O)[C@@H](NC(=O)c4ccccc4)c4ccccc4)C(C)=C1C3(C)C)[C@]1(OC(C)=O)CO[C@@H]1C[C@@H]2O [Paclitaxel, paclitaxel]', 'fold reversal', 18.88),
  ('CC(=O)O[C@@]12CO[C@@H]1C[C@H](O)[C@@]1(C)C(=O)[C@H](O)C3=C(C)[C@@H](OC(=O)[C@H](O)[C@@H](NC(=O)OC(C)(C)C)c4ccccc4)C[C@@](O)([C@@H](OC(=O)c4ccccc4)[C@H]21)C3(C)C [Docetaxel, docetaxel]', 'fold reversal', 33.66),
  ('COc1cccc2c1C(=O)c1c(O)c3c(c(O)c1C2=O)C[C@@](O)(C(C)=O)C[C@@H]3O[C@H]1C[C@H](N)[C@H](O)[C@H](C)O1 [Daunorubicin, daunorubicin]', 'fold reversal', 8.03),
  ('O=c1[nH]cc(F)c(=O)[nH]1 [5-Fluorouracil, 5-fluorouracil]', 'fold reversal', 6.31);
